Molecular target: human ORL1 receptor (Homo sapiens, UniProt P41146)
Construct: purchased PerkinElmer; host or cells: HEK-293 (transfected), membranes
Sequence (P41146 whole entry): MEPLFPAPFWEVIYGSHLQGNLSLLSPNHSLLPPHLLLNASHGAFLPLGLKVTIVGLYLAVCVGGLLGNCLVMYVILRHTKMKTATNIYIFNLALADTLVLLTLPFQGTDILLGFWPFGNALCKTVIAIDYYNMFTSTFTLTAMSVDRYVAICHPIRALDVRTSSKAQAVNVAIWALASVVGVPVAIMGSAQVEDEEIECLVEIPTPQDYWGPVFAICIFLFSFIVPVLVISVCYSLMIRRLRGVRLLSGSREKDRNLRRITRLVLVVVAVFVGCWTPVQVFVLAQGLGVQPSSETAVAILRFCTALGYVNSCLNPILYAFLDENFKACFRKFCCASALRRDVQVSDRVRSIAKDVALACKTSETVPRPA
Assay: ORL1-receptor binding assay
Conditions: [3H]nociceptin, human ORL1 receptor transfected HEK-293 cell membranes; read-out: Ki value with regard to binding affinity for the ORL1 receptor
Counter-ions that a name gives are not always drawn.
Reported Ki values follow for various compounds
Write it as a number; the unit nM goes unstated.

INSERT INTO assay_data (compound, readout_type, recorded_number) VALUES
  ('CN(C)C(=O)C(Cc1cscn1)CN1CCC2(CC1)OCc1ccc(F)cc12 (single isomer, unassigned; (-)) [Example 92, CITRATE]', 'Ki', 5);

Turning now to a further record.
Incoming: Ki lookup needed for CN(C)C(=O)C(CN1CCC2(CC1)OCc1ccc(F)cc12)Cn1cccn1 (single isomer, unassigned; (-)) [Example 102, CITRATE] , thanks.
Outgoing: 12
